Values from patent US20050261273A1

- measured_on: cathepsin D (catD) versus beta-secretase (BACE) (Homo sapiens, UniProt P07339)
- Sequence (P07339 65-412): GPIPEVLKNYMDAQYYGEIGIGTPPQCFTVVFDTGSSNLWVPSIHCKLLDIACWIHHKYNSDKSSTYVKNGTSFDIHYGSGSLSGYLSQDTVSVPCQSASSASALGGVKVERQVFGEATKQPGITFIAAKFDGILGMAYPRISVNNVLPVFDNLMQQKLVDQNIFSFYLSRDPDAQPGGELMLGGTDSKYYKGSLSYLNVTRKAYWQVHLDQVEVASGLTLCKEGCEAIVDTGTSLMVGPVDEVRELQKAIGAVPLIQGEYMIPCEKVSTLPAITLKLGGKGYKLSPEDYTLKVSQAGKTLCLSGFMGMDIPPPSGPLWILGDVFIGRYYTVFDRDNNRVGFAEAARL
- procedure_summary: CatD/BACE selectivity (ratio of IC50 values)
- Type: biochemical
- condition_info: each value is an average of four experimental runs; multiple values = more than one experiment
For each of the compounds below, state its IC50 CatD/IC50 BACE.

# annotated cases, reported IC50 CatD/IC50 BACE shown
CC(C)(CCC(=O)NC(Cc1cc(F)cc(F)c1)C(O)CNC1(c2cccc(C(C)(C)C)c2)CCCCC1)C(=O)O (centres unmarked) [Example 325A-5]; 1.7
CC(C)(C)c1cccc(C2(NCC(O)C(Cc3cc(F)cc(F)c3)NC(=O)c3csc(NS(C)(=O)=O)n3)CCCCC2)c1 (centres unmarked) [Example 325A-6]; 5.0
CC(C)(C)c1cccc(C2(NCC(O)C(Cc3cc(F)cc(F)c3)NC(=O)COCC(=O)O)CCCCC2)c1 (centres unmarked) [Example 325A-3]; 2.0

# batch size: 2; output IC50 CatD/IC50 BACE per entry
1. CN(c1cccc(C(=O)NC(Cc2cc(F)cc(F)c2)C(O)CNC2(c3cccc(C(C)(C)C)c3)CCCCC2)c1)S(C)(=O)=O (centres unmarked) [Example 325A-2]
2. CC(C)(C)c1cccc(C2(NCC(O)C(Cc3cc(F)cc(F)c3)NC(=O)CCCC(=O)O)CCCCC2)c1 (centres unmarked) [Example 325A-4]

[3.1, 1.9]
